tested on: HT29 (colon); experiment: SRB colorimetric cell growth and viability assay, HT29; format: cell-based; conditions: Homo sapiens, HT-29, 48 hours of exposure, read-out: GI50, concentration at which the compound assayed inhibits 50% of the cell growth compared to non-treated cells
Give GI50 for every item shown.
Hi! Could you send only the number? It should be in µM, unit omitted.

Fill in: GI50 of CO[C@H](C(=O)[C@@H](O)[C@@H](C)O)[C@@H]1Cc2cc3cc(O[C@H]4C[C@@H](O[C@H]5C[C@@H](O)[C@H](O)C(C)O5)[C@H](O)C(C)O4)c(C)c(O)c3c(O)c2C(=O)[C@H]1O[C@H]1C[C@@H](O[C@H]2C[C@H](O[C@H]3C[C@](C)(O)[C@H](O)C(C)O3)[C@@H](O)C(C)O2)[C@H](O)C(C)O1 (stereo partly drawn) is ___ 3.87

Fill in: GI50 of CO[C@H](C(=O)[C@@H](O)[C@@H](C)O)[C@@H]1Cc2cc3cc(O[C@H]4CC[C@H](O)C(C)O4)c(C)c(O)c3c(O)c2C(=O)[C@H]1O[C@H]1C[C@@H](O[C@H]2C[C@@H](O[C@H]3C[C@](C)(O)[C@H](O)C(C)O3)[C@@H](O)C(C)O2)[C@H](O)C(C)O1 (stereo partly drawn) is ___ 3.19

* * *

Give GI50 for every item shown.
test system: HT29 (colon); assay: SRB colorimetric cell growth and viability assay, HT29; assay type: cell-based; conditions: Homo sapiens, HT-29, 48 hours of exposure, read-out: GI50, concentration at which the compound assayed inhibits 50% of the cell growth compared to non-treated cells
Hi! Could you send only the number? It should be in µM, unit omitted.

Fill in: GI50 of CO[C@H](C(=O)[C@@H](O)[C@@H](C)O)[C@@H]1Cc2cc3cc(O[C@H]4C[C@@H](O[C@H]5C[C@@H](O)[C@H](O)C(C)O5)[C@H](O)C(C)O4)c(C)c(O)c3c(O)c2C(=O)[C@H]1O[C@H]1C[C@@H](O[C@H]2C[C@](C)(O)[C@H](O)C(C)O2)[C@H](O)C(C)O1 (stereo partly drawn) [formula X, deoliosyl-3C-β-D-mycarosyl-MTM] is ___ 0.93

Fill in: GI50 of CO[C@H](C(=O)[C@@H](O)[C@@H](C)O)[C@@H]1Cc2cc3cc(O[C@H]4C[C@@H](O)[C@H](O)C(C)O4)c(C)c(O)c3c(O)c2C(=O)[C@H]1O[C@H]1C[C@@H](O[C@H]2C[C@@H](O[C@H]3C[C@](C)(O)[C@H](O)C(C)O3)[C@@H](O)C(C)O2)[C@H](O)C(C)O1 (some centres unmarked) [formula XI, 3A-deolivosyl-MTM] is ___ 0.71

Data provenance is patent US8426169B2.
